# Target Desc: DGI-2 (Homo sapiens, UniProt Q15004)
# Construct: encompassed the entire DGI-2 open reading frame (ORF); His-tag of vector pIVEX2.3-MCS (inferred from the vector and from the reverse primer lacking a stop codon); made in house; host or cells: cell-free in vitro translation (Rapid Translation System RTS, Roche; E. coli lysate)
# Sequence (Q15004 1-111): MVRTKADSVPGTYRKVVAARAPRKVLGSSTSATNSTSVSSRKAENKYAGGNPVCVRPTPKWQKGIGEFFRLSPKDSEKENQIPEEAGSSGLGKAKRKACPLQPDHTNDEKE
# Measurement Protocol: ELISA analysis of phage on DGI-2 polypeptide (specific binding)
# Measurement Parameters: ratio of specific binding to non-specific binding
# Method: To verify that the selected target binders bound to DGI-2, Elisa assays were performed with recombinant DGI-2. DGI-2 was subcloned and expressed using conventional methods as described below. Protein yields were satisfactory, but most of protein was found in inclusion bodies. […] For analysis of individual target binders, colonies were picked and phage prepared as described above using helper phage, M13KO7. […] Plates were analyzed at 405 nm. […]
Recorded Endpoint: DGI-2/LDH (OD)

Substance: LVIQCSASVVACDLYWNYVGCLAAG (DGI-2-20C-3-D12; listed as Escherichia coli)
DGI-2/LDH (OD): 1.1

Substance: GGSLPVKSGQLVTCCTSKGG (DGI-2-20F-PP-F5; listed as Escherichia coli)
DGI-2/LDH (OD): 2.5

Substance: VGQSSGDARPLANLFVFPFV (DGI-2-20F-PP-F12; listed as Escherichia coli)
DGI-2/LDH (OD): 2.3

Substance: HGTRLRGVDYVMTWAGWQGYSSRKHVQQAVAGSSPGSDEL (DGI-2-40F-3-B1; listed as Escherichia coli)
DGI-2/LDH (OD): 1.2

[A] LHRLGQSMGGTLDHLQGWGV (DGI-2-20R-4-E5; listed as Escherichia coli)
[B] RGSLLLTLPRLSGAVGTAYG (DGI-2-20F-PP-B3; listed as Escherichia coli)
Req: Between the entries labeled A and B , whose measured DGI-2/LDH (OD) is lower? Respond with the label that goes with your answer.
Resp: A
